Taken from ChEMBL document CHEMBL1201862.

targetUnderTest: FAD-linked sulfhydryl oxidase ALR (Homo sapiens)
Sequence (P55789 whole entry): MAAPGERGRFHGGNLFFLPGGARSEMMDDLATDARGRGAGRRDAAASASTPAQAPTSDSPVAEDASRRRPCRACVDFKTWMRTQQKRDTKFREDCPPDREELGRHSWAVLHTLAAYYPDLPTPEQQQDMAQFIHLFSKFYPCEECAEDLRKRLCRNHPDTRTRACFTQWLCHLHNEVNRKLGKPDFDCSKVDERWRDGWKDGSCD
assayComment: ALR-catalysed DTT oxidation blockers – biochemical, H2O2 detection, luminescence, cherry-pick, dose response (AID 493248)
Calls of active or inactive are those of the source. Rule as the data show it: actives have a measured AC50 and inactives only a lower limit.
Field: AC50. Provide a value for each of the molecules that follow.

Which measured AC50 value corresponds to `Nc1cc(C(F)(F)F)ccc1Nc1ccccc1` ?
14.6 µM (active)

Which measured AC50 value corresponds to `Cc1ccc2[nH]c(NCc3ccccc3)nc2c1` ?
6.87 µM (active)

Which measured AC50 value corresponds to `Cc1ccc(S(=O)(=O)N/N=C/c2ccc(O)c(O)c2)cc1[N+](=O)[O-]` ?
1.06 µM (active)

Which measured AC50 value corresponds to `CCN(CC)c1ccc(/C=N/NC(=O)CNC(=O)c2ccccn2)cc1` ?
0.91 µM (active)

Which measured AC50 value corresponds to `O=[N+]([O-])c1ccc(CSC2=NCCS2)cc1` ?
5.31 µM (active)

Which measured AC50 value corresponds to `O=C(O)c1cccc(N/N=C/c2cc(Br)cc(Br)c2O)c1` ?
1.99 µM (active)

Which measured AC50 value corresponds to `Oc1c(Cl)cc(Cl)cc1CNc1nc2ccccc2[nH]1` ?
0.587 µM (active)

Which measured AC50 value corresponds to `CCN(CC)c1ccc(NC(=O)c2cccnc2)c(C)c1` ?
0.877 µM (active)

Which measured AC50 value corresponds to `CC(=O)c1ccc(S(=O)(=O)N2CCNC(=O)C2)cc1` ?
3.33 µM (active)

Which measured AC50 value corresponds to `Oc1ccc(/C=N/Nc2ccc(C(F)(F)F)cn2)cc1` ?
37.5 µM (active)

Which measured AC50 value corresponds to `O=C(OCc1ccccc1)Oc1cncc(C(=O)O)c1` ?
0.072 µM (active)

Which measured AC50 value corresponds to `COC(=O)c1ccc(NC(=O)c2cccc(Cl)c2)o1` ?
20.9 µM (active)
